Collected set of pIC50 measured with UniProt:P17948 across studies.
pIC50: −log10 of the molar value.
quantity-measured: pIC50

INSERT INTO assay_data (molecule, quantity_measured, meas_value) VALUES
  ('COCCN1CCC(Nc2ccc3c(c2)/C(=C(\c2cccc(Cl)c2)c2ncc[nH]2)C(=O)N3)CC1', 'pIC50', '6.30 to 7.30'),
  ('Cn1cc(-c2cnc3[nH]cc(C(=O)c4cccc(NS(=O)(=O)C5CCCCC5)c4)c3c2)cn1', 'pIC50', '≥ 5.00'),
  ('O=C(c1c(F)ccc(NS(=O)(=O)c2cccc(C(F)(F)F)c2)c1F)c1c[nH]c2ncc(Cl)cc12', 'pIC50', '≥ 5.00'),
  ('Cc1ccc(F)c(NC(=O)Nc2ccc(Oc3ccnc(-c4cc(C(=O)NCCCN5CCOC(CO)C5)c[nH]4)c3)cc2)c1 (stereo not shown)', 'pIC50', 8.05),
  ('COCCN1CCC(Nc2ccc3c(c2)/C(=C(\c2cc(F)cc(F)c2)c2nc4ccccc4[nH]2)C(=O)N3)CC1', 'pIC50', '6.30 to 7.30'),
  ('CC(=O)Nc1cccc(-c2cnc3[nH]cc(C(=O)c4cc(O)ccc4F)c3c2)c1', 'pIC50', '≥ 5.00'),
  ('COc1cc(Nc2ncnc(N3CCCc4ccccc43)n2)cc(OC)c1OC', 'pIC50', '> 5.99');
